// melting point lookup, one value per entry

{"compound": "O=C(O)c1ccccc1N=Nc1ccc(O)cc1 [2-(p-hydroxyphenylazo)benzoic acid]", "unit": "°C", "melting point": 206}
{"compound": "N#CCOc1ccc(Cl)cc1Cl", "unit": "°C", "melting point": 47}
{"compound": "CCC(C)(C)c1ccc(O)cc1", "unit": "°C", "melting point": 89}
{"compound": "CC(=O)/C(=N/Nc1ccc(Cl)cc1)C(=O)C(F)(F)F", "unit": "°C", "melting point": 125}
{"compound": "CC12CCC3C(CCC4CC(O)CCC43C)C1CCC2=O (stereo not given) [3-Hydroxyandrostan-17-one]", "unit": "°C", "melting point": 174}
{"compound": "Cc1ccccc1Cc1ccccc1", "unit": "°C", "melting point": 7}
{"compound": "O=C1C(c2ccccn2)=Nc2ccccc21", "unit": "°C", "melting point": 186}
{"compound": "CCOC(=O)CC(C)C [ethyl_isovalerate]", "unit": "°C", "melting point": -99}
{"compound": "COc1cc(/C=C/C(=O)O)cc(OC)c1O", "unit": "°C", "melting point": 195}
{"compound": "CCCCCCCC/C=C/CCCCCCCC(=O)O", "unit": "°C", "melting point": 43}
{"compound": "OC[C@@H]1CCCN2CCCC[C@H]12", "unit": "°C", "melting point": 64}
{"compound": "CCOC(=O)c1cc(C)nn1C(=O)OCC [diethyl 3-methyl-1H-pyrazole-1,5-dicarboxylate]", "unit": "°C", "melting point": 81}
{"compound": "Nc1nnc(C2CC2)s1", "unit": "°C", "melting point": 214}
{"compound": "CCCN(CC1CC1)c1c([N+](=O)[O-])cc(C(F)(F)F)cc1[N+](=O)[O-]", "unit": "°C", "melting point": 32.5}
{"compound": "Cc1cnc(s1)NC(=O)C\\3=C(/O)c2ccccc2S(=O)(=O)N/3C", "unit": "°C", "melting point": 254}
{"compound": "Nc1cc(C(=O)O)cc(C(F)(F)F)c1", "unit": "°C", "melting point": 144}
{"compound": "COc1cc[n+]([O-])cc1 [4-methoxypyridine n-oxide]", "unit": "°C", "melting point": 102}
{"compound": "Clc1cc(Cl)c(Cl)c(Cl)c1", "unit": "°C", "melting point": 51.5}
{"compound": "N#Cc1ccc(C(N)=O)cc1 [4-cyanobenzamide]", "unit": "°C", "melting point": 227}
{"compound": "COC(CC(C)=O)OC", "unit": "°C", "melting point": -83}
{"compound": "CCCCC=O [Valeraldehyde]", "unit": "°C", "melting point": -91.5}
{"compound": "[C-]#[N+]CS(=O)(=O)c1ccc(C)cc1 [p-toluenesulfonylmethyl isocyanide]", "unit": "°C", "melting point": 112}
{"compound": "CCSC(SCC)C(O)C(O)C(O)C(O)CO (stereo not given) [6,6-di(ethylthio)hexane-1,2,3,4,5-pentaol]", "unit": "°C", "melting point": 128}
{"compound": "CC(N)C(=O)O (stereo not given)", "unit": "°C", "melting point": 292}
{"compound": "CSSC [dimethyl disulfide]", "unit": "°C", "melting point": -85}
{"compound": "OB(O)c1cccc(OCc2ccccc2)c1", "unit": "°C", "melting point": 123}
{"compound": "CC(C)(C)OC(=O)/N=N/C(=O)OC(C)(C)C [di-tert-butyl azodicarboxylate]", "unit": "°C", "melting point": 91}
{"compound": "O=C(O)CCc1ccc(O)cc1", "unit": "°C", "melting point": 130}
{"compound": "Cc1ccc(-n2c(C)ccc2C)cc1", "unit": "°C", "melting point": 45.5}
{"compound": "CC(=O)OC1CCC2(C)C3CCC4=C(CCC4(C)C#CCl)C3CCC2(C)C1 (stereo not given) [17-(chloroethynyl)-5,10,17-trimethylgon-13-en-3-yl acetate]", "unit": "°C", "melting point": 110}
{"compound": "OB(O)c1ccc(Cl)s1", "unit": "°C", "melting point": 138}
{"compound": "O=C(O)C1=CCCCC1", "unit": "°C", "melting point": 32}
{"compound": "CC(C)NCC(O)COc1cccc2ccccc12 (stereo not given) [propranolol]", "unit": "°C", "melting point": 129}
{"compound": "O=C(c1ccccc1)N(O)c1ccccc1 [N-benzoyl-N-phenylhydroxylamine]", "unit": "°C", "melting point": 119}
{"compound": "Nc1ccc(C(=O)O)cc1 [4-aminobenzoic acid]", "unit": "°C", "melting point": 188}
{"compound": "CCOC(=O)c1ccc(N)cc1 [ethyl-4-aminobenzoate (benzocaine)]", "unit": "°C", "melting point": 89}
{"compound": "CC(=O)Oc1ccc2c(C)cc(=O)oc2c1 [4-methylumbelliferyl acetate]", "unit": "°C", "melting point": 150}
{"compound": "COc1ccc(CCN2CCC(Nc3nc4ccccc4n3Cc3ccc(F)cc3)CC2)cc1", "unit": "°C", "melting point": 149}
{"compound": "Cc1n[nH]c(=S)[nH]c1=O", "unit": "°C", "melting point": 220}
{"compound": "CCCCCCCCNCCCCCCCC [N-Octyloctan-1-amine]", "unit": "°C", "melting point": 14}
